Just for reference, PubChem BioAssay (NCI) is where these values come from.

Hi there, I'd appreciate the recorded GI50 for every entry that follows.
System: MALME-3M melanoma
Protocol Summary: NCI tumour cell line growth inhibition, 48 h

// GI50 lookup, compound = Nc1nc(Nc2ccc(C3CCC(N4CCOCC4)CC3)cc2)nn1-c1ccccn1 (stereo not given) , result: 5580 nM

Input O=C(NN1C(=O)CSC12CCCC2)c1[nH]c2ccc(Br)cc2c1-c1ccccc1 . Output GI50: 38300 nM

Reported GI50 ( O=c1nc2oc3ccc4ccccc4c3cc-2s1 ) = 743 nM

GI50 recorded for this compound, CC1(C)[C@@H](OC(N)=O)[C@H]2O[C@H]2[C@]2(CO)[C@H]3CC[C@]4(C)[C@@H](c5ccc(=O)oc5)[C@@H](Cl)C[C@]4(O)C3=CC[C@@H]12 , is 6.16 nM

Entry CCN(CC)Cc1ccc(Nc2nccc(-c3cnn4ncccc34)n2)cc1 ; GI50 = 33 nM
